Test system: SARS-CoV-2 (Omicron variant, B.1.1.529/BA.5 sublineage)
Type: cell-based
Field 'label' (enum: yes (1) / no (0)). Set to yes (1) when 100% CPE Inhibitory Concentration (CPEIC100) is strictly under 6 µM; else no (0).

{"COMPOUND": "Nc1ncnc2c1ncn2[C@@H]1O[C@H](CO)[C@@H](O)[C@@H]1O [Vidarabine, Arabinosyladenine]", "CLASS_ASSIGNMENT": "no (0)"}
{"COMPOUND": "O=c1[nH]cnc2c([C@@H]3N[C@H](CO)[C@@H](O)[C@H]3O)c[nH]c12 [Forodesine]", "CLASS_ASSIGNMENT": "yes (1)"}
{"COMPOUND": "CC(C)C(=O)OC[C@H]1O[C@@H](n2ccc(NO)nc2=O)[C@H](O)[C@@H]1O [Molnupiravir]", "CLASS_ASSIGNMENT": "no (0)"}
{"COMPOUND": "CC(C)Nc1nc2cc(Cl)c(Cl)cc2n1[C@H]1O[C@@H](CO)[C@H](O)[C@@H]1O [Maribavir]", "CLASS_ASSIGNMENT": "no (0)"}
{"COMPOUND": "COc1nc(N)nc2c1ncn2[C@@H]1O[C@H](CO)[C@@H](O)[C@@H]1O [Nelarabine]", "CLASS_ASSIGNMENT": "yes (1)"}

Consider the compound OC[C@H]1O[C@@H](n2cnc3c(N[C@@H]4CCOC4)ncnc32)[C@H](O)[C@@H]1O [Tecadenoson] . Is its 100% CPE Inhibitory Concentration (CPEIC100) strictly less than 6 µM? no (0)
